Reference source: patent US20190055314A1

binders and their reported pKd
target: T1, human CD137-His6 (Sino Biological #10041-H08H) (human, UniProt Q07011 24-186); experiment: SPR Biacore, IgG
T1 construct: Bought; also called human CD137 protein; not shown: His6 tag
pKd is a log-scale quantity: -log10 of the concentration expressed in molar.

The following binders have reported results that may help.
AG10084 (antibody, human IgG4 S228P, kappa, V domains shown) VH: EVQLVESGGGLVQPGGSLRLSCAASGYSITSGHYWNWIRQAPGKGLEWVSGISGDGSSTYYADSVKGRFTISRDNSKNTLYLQLNSLRAEDTAVYYCARGGSDAVLGDWFAYWGQGTLVTVSS VL: DIQLTQSPSSLSASVGDRVTITCRASQSISSYLAWYQQKPGKAPKLLIYDASNLETGVPSRFSGSGSGTDFTLTISSLQPEDFATYYCQQGYSTWTFGQGTKVEIKR	7.37
AG10086 (antibody, human IgG4 S228P, kappa, V domains shown, also called IgG of Fab 5409) VH: EVQLVESGGGLVQPGGSLRLSCAASGYSISSGHHWAWIRQAPGKGLEWVSVISGSGSSTYYADSVKGRFTISRDNSKNTLYLQLNSLRAEDTAVYYCAREGSDTVLGDWFAYWGQGTLVTVSS VL: DIQLTQSPSSLSASVGDRVTITCRASQGISSYLAWYQQKPGKAPKLLIYDASNLETGVPSRFSGSGSGTDFTLTISSLQPEDFATYYCQQGYSTWTFGQGTKVEIKR	7.34

Please examine the following record next.
Entry AG10062 (antibody, human IgG4 S228P, kappa, V domains shown, also called IgG of Fab 5404) VH: EVQLVESGGGLVQPGGSLRLSCAASGYSISSGYHWAWIRQAPGKGLEWIGEIYHSGSTYYSPSLKSRVTISRDNSKNTLYLQLNSLRAEDTAVYYCARSPYYYGVFDYWGQGTLVTVSS VL: DIQLTQSPSSLSASVGDRVTITCSASSRVGSVYWYQQKPGKAPKLLIYDASNLETGVPSRFSGSGSGTDFTLTISSLQPEDFATYYCQQYTHDPVTFGQGTKVEIKR ; pKd = 8.23
